The reported measurements were obtained from the NIST ThermoML archive (doi:10.1016/j.jct.2012.05.029).

- Test description: molar enthalpy of vaporization or sublimation
- Cond: 541.8 K; Liquid; Thermogravimetric Analysis
Quantity kind: molar enthalpy (kJ/mol)
Lab book: enter the figure in kJ/mol, no units written.

Please review the entries below; each comes with its answer.
Structure smiles	Unit text	molar enthalpy
CCCCCC[n+]1ccn(C)c1.O=S(=O)([N-]S(=O)(=O)C(F)(F)F)C(F)(F)F	kJ/mol	118
CCCC[n+]1ccn(C)c1.O=S(=O)([N-]S(=O)(=O)C(F)(F)F)C(F)(F)F	kJ/mol	114
CCCCCCCCn1cc[n+](C)c1.O=S(=O)([N-]S(=O)(=O)C(F)(F)F)C(F)(F)F	kJ/mol	123
CCCCCCCCCCCCCCn1cc[n+](C)c1.O=S(=O)([N-]S(=O)(=O)C(F)(F)F)C(F)(F)F	kJ/mol	133

Query string: Query (compound): `CCCCCCCCCCCCCCCCn1cc[n+](C)c1.O=S(=O)([N-]S(=O)(=O)C(F)(F)F)C(F)(F)F` ; field requested: molar enthalpy
Result string: 136
